# Tested on: C. elegans VP596 Pgst-4::GFP/RFP ratio, acrylamide, 24 h
# procedureSummary: inhibition of acrylamide-induced Pgst-4::GFP reporter, dose response, SKN-1 inhibitor project, whole organism, GFP/RFP fluorescence ratio, set 2, strain VP596 (AID 651563);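 further: red signal is driven by the dop-3 promoter and serves as the normalizer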
Calls of active or inactive are those of the source.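 How the source made its calls: active means compounds whose IC50 is 20 micromolar or lower, counted as confirmed SKN-1 reporter blockers; inactive means the rest.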
Labels: yes (1) (active), no (0) (inactive)

> print(dat)
                                       smi                                testtarget    label
 1          O=c1cc(-c2ccc(F)cc2)oc2ccccc12  C. elegans VP596 Pgst-4::GFP/RFP ratio, acrylamide, 24 h  yes (1)
 2       CC(C)(C)N=C1NN=C(c2ccc(Cl)cc2)CS1  C. elegans VP596 Pgst-4::GFP/RFP ratio, acrylamide, 24 h   no (0)
 3             Clc1ccc(C=Cc2ccccn2)c(Cl)c1  C. elegans VP596 Pgst-4::GFP/RFP ratio, acrylamide, 24 h  yes (1)
 4           Fc1ccccc1CSc1ccc(-c2ccco2)nn1  C. elegans VP596 Pgst-4::GFP/RFP ratio, acrylamide, 24 h   no (0)
 5           c1ccc(-c2csc(Nc3ccccn3)n2)cc1  C. elegans VP596 Pgst-4::GFP/RFP ratio, acrylamide, 24 h  yes (1)
 6                 Nc1ccc2c(Cl)cc(Cl)cc2c1  C. elegans VP596 Pgst-4::GFP/RFP ratio, acrylamide, 24 h   no (0)
 7      COC(=O)c1c(-c2ccccc2)noc1-c1ccccc1  C. elegans VP596 Pgst-4::GFP/RFP ratio, acrylamide, 24 h   no (0)
 8         Clc1ccc(-c2nnc(-c3ccccc3)o2)cn1  C. elegans VP596 Pgst-4::GFP/RFP ratio, acrylamide, 24 h   no (0)
 9                 Clc1ccc(C#Cc2cccnc2)cc1  C. elegans VP596 Pgst-4::GFP/RFP ratio, acrylamide, 24 h  yes (1)
10           Cc1cc(-c2nc3cc(F)ccc3s2)ccc1N  C. elegans VP596 Pgst-4::GFP/RFP ratio, acrylamide, 24 h  yes (1)
11  O=C(/C=C/c1ccccc1)Nc1ccc(CN2CCOCC2)cc1  C. elegans VP596 Pgst-4::GFP/RFP ratio, acrylamide, 24 h  yes (1)
12        Clc1ccc(CSc2ncn(-c3ccccc3)n2)cc1  C. elegans VP596 Pgst-4::GFP/RFP ratio, acrylamide, 24 h  yes (1)

Recorded values, source PubChem BioAssay AID651563.
